Taken from patent US20170215424A1.

# Test system: Blattella germanica
# assay details: Test Example 1: spray knockdown test on Blattella germanica
# Type: in vivo
# conditions used: 0.25 h, 10 vermin, oil solution 2.0% w/v, 1.5 ml sprayed, within 15 minutes, read-out: knockdown ratio of test vermin within 15 minutes
# Procedure: A formulation containing each of the present amide compounds (1), (2), (4), (8), (12), (13), (14), (15), (16), (18), (20), (24), (25), (27) and (28) prepared in accordance with Formulation Example 7 was diluted with an isopropyl alcohol/deodorized kerosine=1/9 mixed liquid so that the active ingredient concentration became 2.0% w/v, to prepare a drug solution for a test. […]
measured endpoint: pest or weed control at 2 % strength

Example entries begin here.
INSERT INTO measurements (molecule, result) VALUES
  ('O=C(NCC1CCOC1)C1=NOC(CCCOCCc2ccccc2)C1 (centres unmarked) [present amide compound (18)]', '≥ 80%'),
  ('O=C(NCC1CCOC1)C1=NOC(COc2cccc(Cl)c2)CC1 (centres unmarked) [present amide compound (25)]', '≥ 80%'),
  ('O=C(NCC1CCOC1)C1=COC(COc2ccccc2)CC1 (centres unmarked) [present amide compound (27)]', '≥ 80%'),
  ('O=C(NCC1CCOC1)C1=COC(COCc2ccccc2)CC1 (centres unmarked)', '≥ 80%'),
  ('CCCCCC1CC(C(=O)NCC2CCOC2)=NO1 (centres unmarked) [present amide compound (2)]', '≥ 80%'),
  ('O=C(NCC1CCOC1)C1=NOC(CCc2ccccc2)C1 (centres unmarked) [present amide compound (4)]', '≥ 80%'),
  ('O=C(NCC1CCOC1)C1=NOC(COCc2ccc3ccccc3c2)C1 (centres unmarked) [present amide compound (20)]', '≥ 80%');

Prompt line: Please indicate pest or weed control at 2 % strength recorded for O=C(NCC1CCOC1)C1=NOC(CCCCCCOCc2ccccc2)C1 (centres unmarked) [present amide compound (16)]
Response line: ≥ 80%
